- Tested On: IMP-1 (Serratia marcescens, UniProt P52699)
- Sequence (P52699 19-246, looked up, species assumed): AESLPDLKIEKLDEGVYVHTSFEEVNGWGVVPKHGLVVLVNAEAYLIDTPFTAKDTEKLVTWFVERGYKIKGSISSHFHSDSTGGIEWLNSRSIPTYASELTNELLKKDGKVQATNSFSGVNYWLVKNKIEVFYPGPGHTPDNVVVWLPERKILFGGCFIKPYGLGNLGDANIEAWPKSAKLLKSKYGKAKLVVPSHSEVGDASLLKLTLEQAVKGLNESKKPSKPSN
- Assay Details: Enzyme activity: determination of IC50, fluorescence assay with CCF2-FA substrate
- Format: biochemical
- Reported Conditions: enzyme 2 pM, CCF2-FA 1.25 μM, 2 hours at 25° C.; read-out: IMP1 IC50
Readout Type: pIC50
Scale: negative log10 of molar concentration, which is what pIC50 denotes.

* CCCCC(C(=O)O)[C@@H](Cc1ccc(-c2ccc(S(C)(=O)=O)cc2)cc1)c1nn[nH]n1 (stereo in doubt) | 6.70
* CCC[C@H](C(=O)O)[C@H](Cc1ccc(C2=CCNC2)nc1)c1nnn[nH]1 | 4.89

From here, focus on the item given below.
Recorded pIC50 (molecule `CCCC[C@@H](C(=O)O)[C@@H](Cc1ccc(-c2cn[nH]c2)cc1)c1nn[nH]n1` ): 6.85
